System: Providencia 12012
Test: Agar dilution test, minimum inhibitory concentration
Format: cell-based
Conditions: test strain Providencia 12012; Isosensitest-Agar (Oxoid), inoculum ca. 10^4 germs per inoculation point; read-out: Minimale Hemmkonzentrationen
endpoint: MIC
// return the numeric value with its unit appended

The examples below pair each entry with its known result.
CN1CCN(c2c(F)c(N)c3c(=O)c(C(=O)O)cn(C4CC4)c3c2F)CC1 [Beispiel 19]
0.06 µg/mL
Nc1c(F)c(N2CCCC2)c(F)c2c1c(=O)c(C(=O)O)cn2C1CC1 [Beispiel 27]
0.06 µg/mL
C[C@@H]1CN(c2c(F)c(N)c3c(=O)c(C(=O)O)cn(C4CC4)c3c2F)C[C@H](C)N1 [Beispiel 22]
0.03 µg/mL
Nc1c(F)c(N2CCN(CCO)CC2)c(F)c2c1c(=O)c(C(=O)O)cn2C1CC1 [Beispiel 21]
0.06 µg/mL
CCN1CCN(c2c(F)c(N)c3c(=O)c(C(=O)O)cn(C4CC4)c3c2F)CC1 [Beispiel 20]
0.06 µg/mL

Looking up Nc1c(F)c(N2CCN3CCC2C3)c(F)c2c1c(=O)c(C(=O)O)cn2C1CC1 (centres unmarked) [Beispiel 25] , I found its MIC recorded as 0.06 µg/mL

For record CCNCC1CCN(c2c(F)c(N)c3c(=O)c(C(=O)O)cn(C4CC4)c3c2F)C1 (centres unmarked) [Beispiel 32] the listed MIC is 0.03 µg/mL

Note to self: MIC recorded for Nc1c(F)c(N2CCOCC2)c(F)c2c1c(=O)c(C(=O)O)cn2C1CC1 [Beispiel 26] was 0.06 µg/mL

---

Recorded MIC by entry
Test system: Staph. 133
Test: Agar dilution test, minimum inhibitory concentration
Type: cell-based
Conditions: test strain Staph. 133; Isosensitest-Agar (Oxoid), inoculum ca. 10^4 germs per inoculation point; read-out: Minimale Hemmkonzentrationen
Record the result as a number with its unit.

Nc1c(F)c(-n2ccnc2)c(F)c2c1c(=O)c(C(=O)O)cn2C1CC1
0.03 µg/mL
Nc1c(F)c(N2CCOCC2)c(F)c2c1c(=O)c(C(=O)O)cn2C1CC1
0.03 µg/mL
Nc1c(F)c(N2CCN(CCO)CC2)c(F)c2c1c(=O)c(C(=O)O)cn2C1CC1
0.06 µg/mL
CCN1CCN(c2c(F)c(N)c3c(=O)c(C(=O)O)cn(C4CC4)c3c2F)CC1
0.06 µg/mL

Value of MIC reported for the compound `CN1CCN(c2c(F)c(N)c3c(=O)c(C(=O)O)cn(C4CC4)c3c2F)CC1` is 0.06 µg/mL

Consider CCNCC1CCN(c2c(F)c(N)c3c(=O)c(C(=O)O)cn(C4CC4)c3c2F)C1 (stereo not drawn) . Its measured MIC is 0.03 µg/mL

The reported MIC of the compound `C[C@@H]1CN(c2c(F)c(N)c3c(=O)c(C(=O)O)cn(C4CC4)c3c2F)C[C@H](C)N1` was 0.03 µg/mL

MIC measured on CC1CN(c2c(F)c(N)c3c(=O)c(C(=O)O)cn(C4CC4)c3c2F)CCN1 (stereo not drawn) = 0.03 µg/mL

So for Nc1c(F)c(N2CCNC(c3ccc(F)cc3)C2)c(F)c2c1c(=O)c(C(=O)O)cn2C1CC1 (stereo not drawn) , the logged MIC turned out to be 0.06 µg/mL

These measurements were taken from patent EP0284935A1.
